# Tested on: lactate dehydrogenase (LDH)
# protocol: ELISA analysis of phage on LDH (irrelevant, non-specific target)
# Format: binding
# reported.conditions: peptide binding to LDH polypeptide (non-specific binding); phage ELISA units read at 405 nm
For each of the sequences below, state its LDH (OD).
One number for each entry, in OD.

Worked cases, answers included:
[
  {
    "monomer.sequence": "LHRLGQSMGGTLDHLQGWGV (DGI-2-20R-4-E5; listed as Escherichia coli)",
    "unit.name": "OD",
    "LDH (OD)": 1.1
  },
  {
    "monomer.sequence": "MGVVLECEGGWSIPGQTCYF (DGI-2-20R-3-C7; listed as Escherichia coli)",
    "unit.name": "OD",
    "LDH (OD)": 1.0
  },
  {
    "monomer.sequence": "LGNASSLWFLRSVQESGVR (LGNASSLIPFLRSVQESGVR; DGI-2-20F-3-C5; listed as Escherichia coli)",
    "unit.name": "OD",
    "LDH (OD)": 0.9
  },
  {
    "monomer.sequence": "MGSLGPFGNTNSLASGIGSVRNRPLLPLHGSP [DGI-2-40F-3-D72]",
    "unit.name": "OD",
    "LDH (OD)": 1.1
  }
]

Hello, I would appreciate it if you could give LDH (OD) for each entry below.
1. GSVLERGCLEFSGFCFSLGH (DGI-2-20F-3-C1; listed as Escherichia coli)
2. WEVGQVEKFSRGVGGWWPTG [DGI-2-20R-3-D3]
3. SSVWATWGSDLRTFGSVGFL (DGI-2-20F-PP-C7; listed as Escherichia coli)
4. TANGHRYGGCGLWCKWMSGM (DGI-2-20R-4-E2; listed as Escherichia coli)
5. WAGSTDLWQLWSLWVKPELR (DGI-2-20F-3-B7; listed as Escherichia coli)

Outgoing:
[1.0, 1.0, 1.1, 1.1, 0.9]

Hello, I would appreciate it if you could give LDH (OD) for each entry below.
1. VSGVPDGSMRAAQLASGYWC (DGI-2-20F-PP-G2; listed as Escherichia coli)
2. PAMGHCMQVLGPVLEGRSRDQVGR (DGI-2-20R-4-G6; listed as Escherichia coli)
3. GIMQVAWGWREMTRLWDLGMA (GIMQVAWGWREWRLWDLGMA; DGI-2-20R-3-C6; listed as Escherichia coli)
4. VTGTRFRGFAVACVRMGTWH (DGI-2-20F-PP-F2; listed as Escherichia coli)
5. LTWGPQFGSLQVYSRHRGLP (DGI-2-20R-4-E4; listed as Escherichia coli)

Outgoing:
[1.1, 1.1, 1.1, 1.0, 1.2]

All figures here come from patent US7056679B2.
